tested on: Dopamine D2 receptor (Homo sapiens); assay: Displacement of [3H]YM09151-2 from human A2aR/D2R (long isoform) heteromer expressed in mouse Ltk cells by scintillation counting
The source made the active and inactive calls. No cut-off for these calls is given here.

{"MOLECULE": "CCCN(CCc1ccc(NC(=O)CCC(N)C(=O)NCCCCC(NC(=O)CCC(=O)NCCOCCOCCNC(=O)CCC(=O)NCCOCCOCCNC(=O)CCC(=O)NCCOCCOCCNC(=O)CCC(=O)NCCOCCOCCNC(=O)CCC(=O)NCCOCCOCCNC(=O)CCC(=O)NCCOCCOCCNC(=O)CCC(=O)NCCOCCOCCNC(=O)C(CCCCNC(=O)C(N)CCCCNC(=O)COc2ccc(-c3nc4c([nH]3)c(=O)n(CCC)c(=O)n4CCC)cc2)NC(C)=O)C(N)=O)cc1)C1CCc2c(O)cccc2C1 (stereo not drawn)", "Activity": "Active"}
{"MOLECULE": "CCCN(CCc1ccc(NC(=O)CCC(N)C(=O)NCCCCC(NC(=O)CCC(=O)NCCOCCOCCNC(=O)CCC(=O)NCCOCCOCCNC(=O)CCC(=O)NCCOCCOCCNC(=O)CCC(=O)NCCOCCOCCNC(=O)CCC(=O)NCCOCCOCCNC(=O)CCC(=O)NCCOCCOCCNC(=O)C(CCCCNC(C)=O)NC(C)=O)C(N)=O)cc1)C1CCc2c(O)cccc2C1 (stereo not drawn)", "Activity": "Active"}
{"MOLECULE": "CCCN(CCc1ccc(NC(=O)CCC(N)C(=O)NCCCCC(NC(=O)C(CCCCNC(=O)C(N)CCCCNC(=O)COc2ccc(-c3nc4c([nH]3)c(=O)n(CCC)c(=O)n4CCC)cc2)NC(C)=O)C(N)=O)cc1)C1CCc2c(O)cccc2C1 (stereo not drawn)", "Activity": "Active"}

====

This section presents compounds with their documented Ki values.
assay: Displacement of [3H]YM09151-2 from D2R (long isoform) dimer in lamb striatum membrane low affinity macroscopic equilibrium dissociation constant by scintillation counting; assay type: cell membranes, Ovis aries

Worked cases, Ki given:
{"COMPOUND": "CCCN(CCc1ccc(NC(=O)CCC(N)C(=O)NCCCCC(NC(=O)CCC(=O)NCCOCCOCCNC(=O)C(CCCCNC(=O)C(N)CCCCNC(=O)COc2ccc(-c3nc4c([nH]3)c(=O)n(CCC)c(=O)n4CCC)cc2)NC(C)=O)C(N)=O)cc1)C1CCc2c(O)cccc2C1 (stereo not drawn)", "ASSAY ENDPOINT": "Ki", "RECORDED VALUE": "7 µM"}
{"COMPOUND": "CCCN(CCc1ccc(NC(=O)CCC(N)C(=O)NCCCCC(NC(=O)CCC(=O)NCCOCCOCCNC(=O)CCC(=O)NCCOCCOCCNC(=O)CCC(=O)NCCOCCOCCNC(=O)C(CCCCNC(C)=O)NC(C)=O)C(N)=O)cc1)C1CCc2c(O)cccc2C1 (stereo not drawn)", "ASSAY ENDPOINT": "Ki", "RECORDED VALUE": "9 µM"}

Next item in the queue.
Look up Ki: CCCN(CCc1ccc(NC(=O)CCC(N)C(=O)NCCCCC(NC(=O)CCC(=O)NCCOCCOCCNC(=O)CCC(=O)NCCOCCOCCNC(=O)C(CCCCNC(=O)C(N)CCCCNC(=O)COc2ccc(-c3nc4c([nH]3)c(=O)n(CCC)c(=O)n4CCC)cc2)NC(C)=O)C(N)=O)cc1)C1CCc2c(O)cccc2C1 (stereo not drawn)
1.4 µM
